# MEASUREMENT TARGET: Amyloid-beta precursor protein (Homo sapiens) (UniProt P05067)
# Sequence (P05067 whole entry): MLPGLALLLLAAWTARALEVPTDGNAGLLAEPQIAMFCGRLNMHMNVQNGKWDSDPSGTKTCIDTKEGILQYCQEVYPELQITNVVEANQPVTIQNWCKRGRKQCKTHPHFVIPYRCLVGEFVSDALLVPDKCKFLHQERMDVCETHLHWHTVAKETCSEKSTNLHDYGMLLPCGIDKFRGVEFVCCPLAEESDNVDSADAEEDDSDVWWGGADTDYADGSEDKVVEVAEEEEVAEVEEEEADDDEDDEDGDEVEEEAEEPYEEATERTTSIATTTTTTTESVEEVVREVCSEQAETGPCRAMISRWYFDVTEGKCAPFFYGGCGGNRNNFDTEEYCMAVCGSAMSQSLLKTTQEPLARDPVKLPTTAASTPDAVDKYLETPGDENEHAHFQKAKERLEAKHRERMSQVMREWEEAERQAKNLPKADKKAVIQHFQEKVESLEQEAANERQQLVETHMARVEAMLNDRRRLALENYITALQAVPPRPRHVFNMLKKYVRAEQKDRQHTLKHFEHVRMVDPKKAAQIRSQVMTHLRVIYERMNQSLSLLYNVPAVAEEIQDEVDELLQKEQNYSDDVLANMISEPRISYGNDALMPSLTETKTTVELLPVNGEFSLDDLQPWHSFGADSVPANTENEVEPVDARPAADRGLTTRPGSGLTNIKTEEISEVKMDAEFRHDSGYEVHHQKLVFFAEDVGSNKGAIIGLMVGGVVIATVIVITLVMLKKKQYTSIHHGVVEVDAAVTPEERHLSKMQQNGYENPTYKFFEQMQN
# ASSAY PROCEDURE: Inhibition of aggregation of amyloid beta-42 (unknown origin) expressed in Escherichia coli BL21 (DE3) assessed as amyloid fibril formation at 10 uM after 24 hrs by thioflavin S fluorescence method
This section presents compounds with their documented inhibition values.
QUANTITY: inhibition

COMPOUND: O=C(O)c1cc(O)c2c(c1)C(=O)c1cccc(O)c1C2=O
RESULT: 49.9%
//
COMPOUND: CC1=CC2Cc3nc4cc(Cl)ccc4c(NCc4ccc(CNC(=O)c5cc(O)c6c(c5)C(=O)c5cccc(O)c5C6=O)cc4)c3C(C1)C2.Cl (racemic)
RESULT: 57.9%
//
COMPOUND: CC1=CC2Cc3nc4cc(Cl)ccc4c(NCCCCCNC(=O)c4cc(O)c5c(c4)C(=O)c4cccc(O)c4C5=O)c3C(C1)C2.Cl (racemic)
RESULT: 68%
//
COMPOUND: CC1=CC2Cc3nc4cc(Cl)ccc4c(NCCCCCCCCCCNC(=O)c4cc(O)c5c(c4)C(=O)c4cccc(O)c4C5=O)c3C(C1)C2.Cl (racemic)
RESULT: 43.3%
//
COMPOUND: CC1=CC2Cc3nc4cc(Cl)ccc4c(NCCCCCCCNC(=O)c4cc(O)c5c(c4)C(=O)c4cccc(O)c4C5=O)c3C(C1)C2.Cl (racemic)
RESULT: 63.2%
//
COMPOUND: CC1=CC2Cc3nc4cc(Cl)ccc4c(NCCCCCCCCNC(=O)c4cc(O)c5c(c4)C(=O)c4cccc(O)c4C5=O)c3C(C1)C2.Cl (racemic)
RESULT: 50.2%
//
COMPOUND: CC1=CC2Cc3nc4cc(Cl)ccc4c(NCCCCCCCCCCCNC(=O)c4cc(O)c5c(c4)C(=O)c4cccc(O)c4C5=O)c3C(C1)C2.Cl (racemic)
RESULT: 40.7%
//
COMPOUND: CC1=CC2Cc3nc4cc(Cl)ccc4c(NCCCCCCNC(=O)c4cc(O)c5c(c4)C(=O)c4cccc(O)c4C5=O)c3C(C1)C2 (racemic)
RESULT: 68.4%
//
COMPOUND: CC1=C[C@@H]2Cc3nc4cc(Cl)ccc4c(NCCCCCCCCCNC(=O)c4cc(O)c5c(c4)C(=O)c4cccc(O)c4C5=O)c3[C@H](C1)C2
RESULT: 47.2%
//
COMPOUND: CC1=C[C@H]2Cc3nc4cc(Cl)ccc4c(NCCCCCCCCCNC(=O)c4cc(O)c5c(c4)C(=O)c4cccc(O)c4C5=O)c3[C@@H](C1)C2.Cl
RESULT: 58.6%
//
COMPOUND: CC1=CC2Cc3nc4cc(Cl)ccc4c(NCCCCCCCCCNC(=O)c4cc(O)c5c(c4)C(=O)c4cccc(O)c4C5=O)c3C(C1)C2.Cl (racemic)
RESULT: 47.9%
